src = PubChem BioAssay (NCI)

- Test system: K-562 leukemia
- Assay Overview: NCI-60 one-dose screen, 48 h (100 = growth as untreated, 0 = no growth, -100 = all killed)
- Run Parameters: 10 µM unless noted
- Experimental: Cells are grown in 96 well plates and exposed to the test compound for 48 hours. Compounds are tested at a single concentration, which is 10^-5 M for most compounds. The reported endpoint is percent growth (GI% or GIPRCNT), where numbers from 0 - 100% represent growth inhibition, and numbers from -100% - 0 represent cell death. For example, a value of 40 represents 60% growth inhibition. A value of 0 means no net growth occurred over the course of the experiment. […]
About 83,000 compounds went through this panel and 20% of them were active in at least one assay; those are over-represented in the sample as a whole.
Reported Endpoint: growth (%)
Only the number, expressed in %, is required.

O=C1C2(c3ccccc3)C(c3ccccc3)=C(c3ccccc3)C1(c1ccccc1)C1CC=CC12 (stereo not given) :: 69.3
O=C(Nc1ccc(NCCN2CCOCC2)nc1)c1ccc([N+](=O)[O-])cc1 :: 103
O=[N+]([O-])c1cccc(-c2nc3sccn3c2-c2ccnc(NCCCNS(=O)(=O)c3ccc(Cl)cc3)n2)c1 :: 26.6
N=c1ccc2nc3ccc(N)cc3sc-2c1 :: 26.6

Exercise: State the recorded growth for this entry: COc1ccc2c(c1)NC1=C(C(=O)OC1)C2c1cc(OC)c2c(c1)OCO2 (stereo not given)
Key: 10.8

====

- System: HOP-92 NSCLC
- Assay Overview: NCI-60 one-dose screen, 48 h (100 = growth as untreated, 0 = no growth, -100 = all killed)
- Run Parameters: 10 µM unless noted
Compounds without any hit were thinned out: in the full panel of roughly 83,000, 20% have a hit.
Reported Endpoint: growth (%)
Only the number, expressed in %, is required.

See these solved cases before continuing.
O=C1NN(C(=O)c2ccc(Cl)cc2)C(c2ccccc2)=N/C1=C\c1ccc(F)cc1 :: 83.5
COC(=O)C(Sc1ccc(Cl)cc1)C1SC(=S)N(Cc2ccccc2)C1=O (centres undefined) :: 104
CCCCCCCCCCCCCCCCCCNC(=O)[C@H]1CSC(c2ccc(OC)cc2O)N1 (some centres undefined) :: 66
O=C(Nc1cccc(-n2cc(-c3ccncc3)c(-c3ccc(Cl)c(O)c3)n2)c1)Nc1cc(C(F)(F)F)cc(C(F)(F)F)c1 :: -45.8

Exercise: State the recorded growth for this entry: O=C(NNC(=O)N1c2ccccc2C=Cc2ccccc21)c1ccc2ccccc2c1
Key: 81.4

Exercise: Further, for O=C(N/N=C/C=C\c1ccccc1)C(=O)N/N=C/C=C/c1ccccc1 ?
Key: 115

Exercise: Further, for COc1ccc(C2C(C#N)=C(N)Oc3c2ccc2ccccc32)cc1 (centres undefined) ?
Key: 48.4

Exercise: Further, for COc1ccc(C(=O)n2nc(/C=C/c3ccc(O)c(OC)c3)cc2/C=C/c2ccc(O)c(OC)c2)cc1 ?
Key: -10.7

Exercise: Further, for COc1cccc(/C=C2\Oc3cc(OCCCN4CCCC4)ccc3C2=O)c1 ?
Key: 74.1

====

- Tested on: A498 renal
- Assay Overview: NCI-60 one-dose screen, 48 h (100 = growth as untreated, 0 = no growth, -100 = all killed)
- Run Parameters: 10 µM unless noted
The panel holds about 83,000 compounds, 20% with a hit somewhere; the sample as a whole holds those more often.
Reported Endpoint: growth (%)
Only the number, expressed in %, is required.

See these solved cases before continuing.
S=c1[nH]nc(-c2cc3ccc2CCc2ccc(cc2)CC3)n1-c1ccccc1 :: 90.2
C/C(=N/NC(=S)Nc1ccccc1)c1nc2ccc(Cl)cc2[nH]1 :: -81.4
CCCCCCCCCCCCNC(=O)[C@H]1CSC(c2cc(Br)cs2)N1 (stereo partly specified) :: 76.8
COc1ccc(CN2CCc3c(Sc4ccccc4)nc(N)nc3C2=O)c(OC)c1 :: 66
c1ccc(-c2nc(N3CCNCC3)c3nc(-c4ccccc4)oc3n2)cc1 :: 80.6

Exercise: State the recorded growth for this entry: CCCCNC(=O)Oc1ccc(/C(=C(\C)c2ccccc2)c2ccc(OCCN(CC)CC)cc2)cc1
Key: 65.3
